The measured values listed here are drawn from PubChem BioAssay.

assay: reversal of MRP1-mediated doxorubicin resistance, pilot screen, H69AR cells, doxorubicin co-treatment (AID 601); settings: H69AR cells, CellTiter-Glo, 72 h; compound alone cytotoxicity; at 10 µM
Measured viability values are reported for all entries that follow.
assay.metric: viability (%)

compound: CCCC(NC(=O)c1ccccc1)c1nc2ccccc2n1Cc1ccc(C(=O)OC)o1 (stereo unspecified)
assay.metric: viability
recorded.value: 95
--
compound: COC(=O)c1cc(NC(=O)C2COc3ccccc3O2)cc(C(=O)OC)c1 (stereo unspecified)
assay.metric: viability
recorded.value: 84.2
--
compound: Brc1cccc(-c2cnc3n2CCCCC3)c1
assay.metric: viability
recorded.value: 91.5
--
compound: CCN1CCN(C(c2ccc(F)cc2)c2nnnn2Cc2cccs2)CC1 (stereo unspecified)
assay.metric: viability
recorded.value: 94.9
--
compound: CCOC(=O)c1oc2ccccc2c1NC(=O)COC
assay.metric: viability
recorded.value: 102
--
compound: O=C(O)CCCc1nc(-c2ccccc2)no1
assay.metric: viability
recorded.value: 97
